Observed pIC50 for Rho-associated protein kinase 2 (Homo sapiens), reported per entry below.
One number for each entry, as −log10 of the molar value.

O=C(Nc1cc2cc[nH]c(=O)c2cc1Cl)C1CNCC1c1ccncc1 (racemic) ... 7.59
O=C(Nc1cc2cc[nH]c(=O)c2cc1Cl)C1CNCCC1c1ccccc1 (racemic) ... 8.22

Batch of 7 compounds: report pIC50 for each.
1. Cc1cccc(C2CNCC2C(=O)Nc2cc3cc[nH]c(=O)c3cc2Cl)c1 (racemic)
2. O=C(Nc1cc2cc[nH]c(=O)c2cc1Cl)C1CNCC1c1ccc(Cl)cc1 (racemic)
3. O=C(Nc1cc2cc[nH]c(=O)c2cc1Cl)C1CNCC1c1ccc(Cl)cc1Cl (racemic)
4. O=C(Nc1cc2cc[nH]c(=O)c2cc1Cl)C1(c2ccccc2)CCNCC1
5. O=C(Nc1cc2cc[nH]c(=O)c2cc1Cl)C1CNCC1c1cccc(Br)c1 (racemic)
6. CC(C)c1cccc(C2CNCC2C(=O)Nc2cc3cc[nH]c(=O)c3cc2Cl)c1 (racemic)
7. O=C(Nc1cc2cc[nH]c(=O)c2cc1Cl)C1CNCC1c1cccc(C(F)(F)F)c1 (racemic)

Response:
1. 8.30
2. 8.22
3. 8.10
4. 6.64
5. 8.70
6. 8.22
7. 8.40
